System: DMS 114 small cell lung
assay.method.text: NCI tumour cell line growth inhibition, 48 h

| compound | study.target | TGI |
| --- | --- | --- |
| CN(C(=O)c1ccccc1)c1ccc2c(c1)C(=O)c1ccccc1C2=O | DMS 114 small cell lung | > 100 µM |
| COc1cc2cnc3c4cc(OC)c(OC(C)C)cc4ccc3c2cc1OC | DMS 114 small cell lung | > 100 µM |
| CC[P+]1(c2ccccc2)CCCCC1 | DMS 114 small cell lung | > 100 µM |
| COc1ccc(/C=C/c2nc(=S)[nH][nH]2)cc1OC | DMS 114 small cell lung | > 100 µM |
| Cc1ccc(NC(=O)CCC(=O)C2Cc3ccccc3C2=O)cc1C (centres undefined) | DMS 114 small cell lung | > 100 µM |
| Cn1c(=O)[nH]c2c(c1=O)C(=O)CN2 | DMS 114 small cell lung | > 100 µM |
| CCC(=O)CCC1=Nc2nnc(CCCCc3nnc4n3C(=O)C(CCC(=O)CC)=N4)n2C1=O | DMS 114 small cell lung | > 100 µM |
| O=S(=O)(CF)OCCCCOS(=O)(=O)CF | DMS 114 small cell lung | > 100 µM |
| O=C1C2C3C=C4c5ccccc5N(c5ccccc5)C4([C@@H]2C(=O)N1c1ccc(F)cc1)[C@H]1C(=O)N(c2ccc(F)cc2)C(=O)[C@@H]31 (some centres undefined) | DMS 114 small cell lung | > 100 µM |

* * *

System: HCT-116 colon
assay.method.text: NCI tumour cell line growth inhibition, 48 h

| compound | study.target | TGI |
| --- | --- | --- |
| C1=Cc2cccc3occ(c23)C=C1 | HCT-116 colon | > 100 µM |
| O=C(COc1cccc(/C=C2\Oc3ccc4ccccc4c3C2=O)c1)c1ccc([N+](=O)[O-])cc1 | HCT-116 colon | 40.9 µM |
| Cc1ccc2c(c1)C(O)(c1ccccc1)CCS2 (stereo unspecified) | HCT-116 colon | 42.5 µM |
| CC(=O)OCC1OC(n2c(O)c(N=NC(N)=S)c3ccc([N+](=O)[O-])cc32)C(OC(C)=O)C1OC(C)=O (stereo unspecified) | HCT-116 colon | 29.5 µM |
| Nn1c(CCCCCCCCc2n[nH]c(=S)n2N)n[nH]c1=S | HCT-116 colon | > 100 µM |
| COc1cc(NCCC2CCCCN2)c2ncccc2c1OC (stereo unspecified) | HCT-116 colon | 3.7 µM |
| COC(=O)[C@H](C)N(C)C(=O)[C@H](C)N1[C@@H](c2ccccc2)COC1(C)C | HCT-116 colon | > 100 µM |
| Nc1ncc2c(n1)-c1ccccc1OC2N1CCOCC1 (stereo unspecified) | HCT-116 colon | > 100 µM |
| Oc1cccc2ccc(Br)nc12 | HCT-116 colon | > 100 µM |
| Cc1cn(C2CC(O)C(COC(N)=O)O2)c(=O)[nH]c1=O (stereo unspecified) | HCT-116 colon | > 100 µM |
| CCOC(=O)c1ccc(N(CCOS(=O)(=O)c2ccc(C)cc2)CCOS(=O)(=O)c2ccc(C)cc2)cc1 | HCT-116 colon | > 100 µM |

* * *

Measured TGI by item
Tested on: OVCAR-4 ovarian
assay.method.text: NCI tumour cell line growth inhibition, 48 h

| compound | TGI |
| --- | --- |
| O=C1c2c(O)cccc2Cc2cc(CO)cc(O)c21 | 14.4 µM |
| CCOC(=O)/C(=C\c1c(C)[nH]c2ccccc12)P(=O)(OCC)OCC | > 100 µM |
| O=C(NCCN(CCNC(=O)c1cccc(=O)n1O)CCNC(=O)c1cccc(=O)n1O)c1cccc(=O)n1O | > 100 µM |
| COC(=O)/C(C#N)=C/c1cc(C(C)(C)C)c(O)c(C(C)(C)C)c1 | > 51.2 µM |
| N#CC(C#N)=Cn1c(=S)[nH]c2ccc([N+](=O)[O-])cc21 | > 100 µM |
| COC(=O)C(C#N)C1NC(=O)c2ccccc21 (stereo not given) | > 100 µM |
| COc1nc2c(c(=O)[nH]1)N=C(c1ccc(Cl)cc1)CC(c1ccccc1)N2 (stereo not given) | 57.4 µM |
| CC1(C)CCC[C@@]2(C)C1CC[C@@]1(CO1)[C@@H]2/C=C\C(C=O)CC=O (stereo not given in full) | > 100 µM |
| Cc1cn(C2CC(O)C(COC(N)=O)O2)c(=O)[nH]c1=O (stereo not given) | > 100 µM |
| COC1OC(Cn2cc([N+](=O)[O-])nc2C)C(O)C(O)C1O (stereo not given) | > 100 µM |
